- System: sedge, umbrella (small-flower umbrella sedge, Cyperus difformis)
- assayInfo: Test B flooded paddy test
- Type: in vivo
- conditionContext: Cyperus difformis, 250 g ai/ha, Flood; 0 to 100 scale where 0 is no effect and 100 is complete control; read-out: Sedge, Umbrella plant response rating
reportedProperty: pest or weed control at 250 g/ha
Write down the value, and be sure its unit follows.

Item Cc1ccc([C@H]2CN(C)C(=O)[C@@H]2C(=O)Nc2c(F)c(F)c(F)c(F)c2F)cc1 [Compound 1292] ; assay system sedge, umbrella (small-flower umbrella sedge, Cyperus difformis); pest or weed control at 250 g/ha reported as 0%

Item COc1ccc([C@H]2CN(C)C(=O)[C@@H]2C(=O)Nc2ccccc2F)c(OC)c1 [Compound 1215] ; assay system sedge, umbrella (small-flower umbrella sedge, Cyperus difformis); pest or weed control at 250 g/ha reported as 0%

Item O=C(Nc1ccccc1F)C1C(=O)N(CC(F)F)CC1c1cccc(C(F)(F)F)c1 (centres unmarked) [Compound 1293] ; assay system sedge, umbrella (small-flower umbrella sedge, Cyperus difformis); pest or weed control at 250 g/ha reported as 0%

Item Cc1c(F)cccc1NC(=O)[C@H]1C(=O)N(C)C[C@@H]1c1cc(C(F)F)cs1 [Compound 1089] ; assay system sedge, umbrella (small-flower umbrella sedge, Cyperus difformis); pest or weed control at 250 g/ha reported as 0%

Item CC(C)COc1cccc([C@H]2CN(C)C(=O)[C@@H]2C(=O)Nc2ccc(F)cc2F)c1 [Compound 1030] ; assay system sedge, umbrella (small-flower umbrella sedge, Cyperus difformis); pest or weed control at 250 g/ha reported as 0%

----------
Listed below: Corn plant response rating values for each entry.
- Tested on: corn (Zea mays)
- assayInfo: Test A postemergence
- Type: in vivo
- conditionContext: 125 g ai/ha, postemergence; visual injury rating on 0 to 100 scale (0 no effect, 100 complete control), approx. 10 d
Enter the number alone.

Some entries whose results are on file:
Record summary for CN1CC(c2cccc(C(F)(F)F)c2)C(C)(C(=O)Nc2ccccc2F)C1=O (centres unmarked) [Compound 428] : reported Corn plant response rating = 30

Record summary for Cc1cc(C2CN(C)C(=O)C2C(=O)Nc2ccccc2S(C)(=O)=O)ccc1F (centres unmarked) [Compound 405] : reported Corn plant response rating = 30

Record summary for COC(=O)c1ccccc1NC(=O)C1C(=O)NCC1c1ccc(F)c(F)c1 (centres unmarked) [Compound 417] : reported Corn plant response rating = 0

Further cases:
Record summary for CN1CC(c2ccc(Cl)cc2)C(C(=O)Nc2ccccc2F)C1=O (centres unmarked) [Compound 433] : reported Corn plant response rating = 0

Record summary for COc1ccc(NC(=O)C2C(=O)NCC2c2ccc(F)c(F)c2)cc1F (centres unmarked) [Compound 415] : reported Corn plant response rating = 0

----------
Listed below: pest or weed control at 500 g/ha values for each entry.
- Test system: ragweed (common ragweed, Ambrosia elatior)
- assayInfo: Test A preemergence
- Type: in vivo
- conditionContext: Ambrosia artemisiifolia, pre-emergence, 240 h, 500 g ai/ha, preemergence; 0 to 100 scale (0 no effect, 100 complete control); read-out: Plant response rating, Ragweed
Write the value in % as a bare number.

Record summary for "CN1C[C@H](c2cccc(C(F)(F)F)c2)[C@@H](C(=O)Nc2ccc(F)c(F)c2F)C1=O" : reported pest or weed control at 500 g/ha = 30

Record summary for C=CN1C[C@H](c2ccc(C)c(F)c2)[C@@H](C(=O)Nc2cccc(F)c2F)C1=O (racemic) : reported pest or weed control at 500 g/ha = 0

Record summary for "CN1C[C@H](c2ccc(OC(F)F)cc2)[C@@H](C(=O)Nc2ccccc2F)C1=O" : reported pest or weed control at 500 g/ha = 80

Record summary for "CC(C)c1cccc([C@H]2CN(C)C(=O)[C@@H]2C(=O)Nc2cccc(F)c2F)c1" : reported pest or weed control at 500 g/ha = 70

Record summary for "Cc1ccc([C@H]2CN(C)C(=O)[C@@H]2C(=O)Nc2ccccc2F)cc1Cl" : reported pest or weed control at 500 g/ha = 0
